Assay: Growth inhibition of human UM-UC-3 cells after 24 hrs by Clonogenic cell survival assay
Format: functional, cell-based
Conditions: UMUC3, 24 h
ATTRIBUTE MEASURED: EC50 (nM)

INSERT INTO results (smiles_str, test_result) VALUES
  ('CC(C)(O)[C@H]1CC[C@H](Nc2ccn3ncc(-c4cccc(Cl)c4)c3n2)CC1', 914);

====

Molecular target: Serine/threonine-protein kinase pim-2 (Homo sapiens, UniProt Q9P1W9)
Sequence (Q9P1W9 whole entry): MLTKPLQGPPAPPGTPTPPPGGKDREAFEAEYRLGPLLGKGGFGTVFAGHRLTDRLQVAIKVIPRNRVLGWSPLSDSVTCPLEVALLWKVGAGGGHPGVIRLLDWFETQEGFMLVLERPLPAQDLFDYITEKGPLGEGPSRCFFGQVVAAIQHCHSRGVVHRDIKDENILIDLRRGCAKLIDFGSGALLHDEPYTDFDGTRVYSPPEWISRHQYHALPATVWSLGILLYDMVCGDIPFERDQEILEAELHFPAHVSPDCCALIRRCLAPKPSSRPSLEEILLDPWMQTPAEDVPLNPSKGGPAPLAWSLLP
Assay: Inhibition of Pim2 (unknown origin) using luciferase-luciferin based ATP detection reagent by Kinase-Glo assay
Details: read-out: IC50
Here the recorded IC50 is given for each entry.
ATTRIBUTE MEASURED: IC50 (nM)

INSERT INTO results (smiles_str, reading_unit, test_result) VALUES
  ('Clc1cccc(-c2cnn3ccc(NCC4CCOCC4)nc23)c1', 'nM', 1640),
  ('FC(F)(F)Oc1cccc(-c2cnn3ccc(NCC4CCOCC4)nc23)c1', 'nM', 3730),
  ('C[C@]1(O)CC[C@H](Nc2ccn3ncc(-c4cccc(OC(F)(F)F)c4)c3n2)CC1', 'nM', 2040),
  ('CC(C)(O)[C@H]1CC[C@H](Nc2ccn3ncc(-c4cccc(Cl)c4)c3n2)CC1', 'nM', 228),
  ('C[C@]1(O)CC[C@H](Nc2ccn3ncc(-c4cccc(C(F)(F)F)c4)c3n2)CC1', 'nM', 639),
  ('C[C@]1(O)CC[C@H](Nc2ccn3ncc(-c4cccc(Cl)c4)c3n2)CC1', 'nM', 1260),
  ('N[C@H]1CCCN(c2ccn3ncc(-c4cccc(Cl)c4)c3n2)C1', 'nM', 2000),
  ('CC(C)(O)[C@H]1CC[C@H](Nc2ccn3ncc(-c4cccc(C(F)(F)F)c4)c3n2)CC1', 'nM', 525),
  ('O=C1CCN(c2ccn3ncc(-c4cccc(Cl)c4)c3n2)CC1', 'nM', 564);

====

Target: Serine/threonine-protein kinase pim-2 (Homo sapiens, UniProt Q9P1W9)
Assay: Inhibition of Pim2 (unknown origin) using luciferase-luciferin based ATP detection reagent by Kinase-Glo assay
Conditions: read-out: IC50
Binary label based on IC50 with cut-off 1000 nM: below gives rule met, not below gives rule not met.

INSERT INTO measurements (smiles_str, category) VALUES
  ('CO[C@H]1CC[C@H](Nc2ccn3ncc(-c4cccc(OC(F)(F)F)c4)c3n2)CC1', 'rule not met'),
  ('N[C@H]1CC[C@H](Nc2ccn3ncc(-c4cccc(OC(F)(F)F)c4)c3n2)CC1', 'rule met'),
  ('O=S1(=O)CCC(CNc2ccn3ncc(-c4cccc(Cl)c4)c3n2)CC1', 'rule not met'),
  ('O=S1(=O)CCC(CNc2ccn3ncc(-c4cccc(C(F)(F)F)c4)c3n2)CC1', 'rule not met'),
  ('CN1CCC(CNc2ccn3ncc(-c4cccc(OC(F)(F)F)c4)c3n2)CC1', 'rule not met'),
  ('CC(C)(O)[C@H]1CC[C@H](Nc2ccn3ncc(-c4cccc(OC(F)(F)F)c4)c3n2)CC1', 'rule not met'),
  ('FC(F)(F)c1cccc(-c2cnn3ccc(NCC4CCOCC4)nc23)c1', 'rule not met'),
  ('O[C@H]1CC[C@H](Nc2ccn3ncc(-c4cccc(OC(F)(F)F)c4)c3n2)CC1', 'rule met'),
  ('O[C@H]1CC[C@H](Nc2ccn3ncc(-c4cccc(C(F)(F)F)c4)c3n2)CC1', 'rule met');

====

Target: Receptor-type tyrosine-protein kinase FLT3 (Homo sapiens)
Sequence (P36888 whole entry): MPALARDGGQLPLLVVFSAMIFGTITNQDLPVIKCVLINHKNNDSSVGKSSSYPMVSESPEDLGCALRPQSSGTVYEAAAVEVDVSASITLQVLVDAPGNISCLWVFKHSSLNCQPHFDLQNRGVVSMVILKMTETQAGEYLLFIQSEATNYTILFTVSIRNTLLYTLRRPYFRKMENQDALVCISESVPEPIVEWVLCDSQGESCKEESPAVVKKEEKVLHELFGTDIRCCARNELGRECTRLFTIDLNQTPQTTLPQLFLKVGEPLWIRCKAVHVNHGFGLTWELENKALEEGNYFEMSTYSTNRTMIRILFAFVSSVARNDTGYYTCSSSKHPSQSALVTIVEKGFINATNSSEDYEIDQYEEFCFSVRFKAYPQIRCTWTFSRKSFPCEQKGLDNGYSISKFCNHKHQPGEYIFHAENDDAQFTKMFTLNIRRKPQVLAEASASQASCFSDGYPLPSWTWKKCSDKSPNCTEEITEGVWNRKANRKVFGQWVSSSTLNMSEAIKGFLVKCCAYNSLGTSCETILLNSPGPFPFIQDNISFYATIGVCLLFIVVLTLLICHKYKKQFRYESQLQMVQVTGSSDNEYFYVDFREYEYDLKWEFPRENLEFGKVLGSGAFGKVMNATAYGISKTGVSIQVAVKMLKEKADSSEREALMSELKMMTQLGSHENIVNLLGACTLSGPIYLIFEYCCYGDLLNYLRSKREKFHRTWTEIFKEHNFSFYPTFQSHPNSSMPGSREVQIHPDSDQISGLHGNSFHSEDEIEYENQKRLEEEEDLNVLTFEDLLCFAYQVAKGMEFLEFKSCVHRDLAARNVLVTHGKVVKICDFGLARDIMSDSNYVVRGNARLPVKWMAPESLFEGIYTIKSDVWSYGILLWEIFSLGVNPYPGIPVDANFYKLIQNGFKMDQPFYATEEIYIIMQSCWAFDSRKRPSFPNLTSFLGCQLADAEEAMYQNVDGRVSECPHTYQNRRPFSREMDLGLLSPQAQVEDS
pIC50: −log10 of the molar value.
ATTRIBUTE MEASURED: pIC50

INSERT INTO results (smiles_str, measured_on, test_result) VALUES
  ('O[C@H]1CC[C@H](Nc2ccn3ncc(-c4cccc(C(F)(F)F)c4)c3n2)CC1', 'Receptor-type tyrosine-protein kinase FLT3 (Homo sapiens)', 7.28);

====

Here the recorded pIC50 is given for each entry.
Molecular target: Serine/threonine-protein kinase pim-1 (Homo sapiens)
Sequence (P11309 whole entry): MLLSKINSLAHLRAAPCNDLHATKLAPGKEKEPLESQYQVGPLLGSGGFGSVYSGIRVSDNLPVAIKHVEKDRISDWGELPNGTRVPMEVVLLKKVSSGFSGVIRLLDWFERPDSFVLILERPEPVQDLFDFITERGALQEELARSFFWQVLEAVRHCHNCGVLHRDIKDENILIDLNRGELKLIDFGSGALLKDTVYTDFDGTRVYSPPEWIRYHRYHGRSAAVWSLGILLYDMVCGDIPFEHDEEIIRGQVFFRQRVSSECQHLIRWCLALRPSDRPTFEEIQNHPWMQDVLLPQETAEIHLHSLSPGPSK
Assay: Inhibition of Pim1 (unknown origin) using luciferase-luciferin based ATP detection reagent by Kinase-Glo assay
Conditions: read-out: IC50
pIC50: −log10 of the molar value.
ATTRIBUTE MEASURED: pIC50

INSERT INTO assay_data (smiles_str, measured_on, test_result) VALUES
  ('FC(F)(F)Oc1cccc(-c2cnn3ccc(NCC4CCOCC4)nc23)c1', 'Serine/threonine-protein kinase pim-1 (Homo sapiens)', 6.20),
  ('FC(F)(F)c1cccc(-c2cnn3ccc(NCC4CCOCC4)nc23)c1', 'Serine/threonine-protein kinase pim-1 (Homo sapiens)', 6.83),
  ('O=C1CCN(c2ccn3ncc(-c4cccc(Cl)c4)c3n2)CC1', 'Serine/threonine-protein kinase pim-1 (Homo sapiens)', 6.77);

Where these numbers come from: ChEMBL document CHEMBL3351833
